species: Rattus norvegicus; assay: DrugMatrix - Regimen: Daily Repeat; format: toxicity, organism-based, Sprague-Dawley; set-up: regimen Daily Repeat, gender Male, age 6-8 weeks; settings: in vivo, po, 100 mg/kg, 120 h, tissue Plasma, route oral GAVAGE, dose level Low, time 5 day, vehicle .5 % CMC
parameterMeasured: TOTAL BILIRUBIN (mg/dL)
Numbers only, in mg/dL.

molecule="CC=Cc1ccc(O)c(OC)c1 [ISOEUGENOL]" parametermeasured="TOTAL BILIRUBIN" obsvalue=0.2
molecule=CC[C@]1(O)CC[C@H]2[C@@H]3CCC4=CCCC[C@@H]4[C@H]3CC[C@@]21C parametermeasured="TOTAL BILIRUBIN" obsvalue=0.33
molecule="Nc1nc2c(c(=O)[nH]1)N(C=O)C(CNc1ccc(C(=O)N[C@@H](CCC(=O)O)C(=O)O)cc1)CN2 (some centres undefined) [LEUCOVORIN]" parametermeasured="TOTAL BILIRUBIN" obsvalue=0.23

Field: next molecule
Exercise: Look up and report measured TOTAL BILIRUBIN for this entry: C#C[C@]1(O)CC[C@H]2[C@@H]3CCC4=Cc5oncc5C[C@]4(C)[C@H]3CC[C@@]21C [DANAZOL]
Solution: 0.23

----------
species: Rattus norvegicus; assay: DrugMatrix - Regimen: Daily Repeat; type: toxicity, organism-based, Sprague-Dawley; design: regimen Daily Repeat, gender Male, age 6-8 weeks; details: in vivo, po, 0 mg/kg, 72 h, tissue Blood, route oral GAVAGE, dose level Control, time 3 day, vehicle .5 % CMC
Exercise: state measured ABSOLUTE SEGMENTED NEUTROPHIL for each of the compounds provided.
Numbers only, in CELLS/uL.

The examples below pair each entry with its known result.
compound=COc1ccc(/C=C/C(=O)Nc2ccccc2C(=O)O)cc1OC obsvalue=1490.83
compound="CC(C(=O)O)c1ccc(-c2ccccc2)c(F)c1 (configuration not stated)" obsvalue=1490.83
compound=C[C@@H]1CC[C@H]2[C@@H](C)C(=O)O[C@@H]3O[C@@]4(C)CC[C@@H]1[C@]32OO4 obsvalue=1121.33
compound=CN1C(=O)CN=C(c2ccccc2)c2cc(Cl)ccc21 obsvalue=970
compound=CCOC(=O)[C@H](CCc1ccccc1)N[C@@H](C)C(=O)N1Cc2ccccc2C[C@H]1C(=O)O obsvalue=1192.33

The following compounds each have a reported value; give each one's ABSOLUTE SEGMENTED NEUTROPHIL.
1. CO[C@H]1C[C@@H]2CC[C@@H](C)[C@@](O)(O2)C(=O)C(=O)N2CCCC[C@H]2C(=O)O[C@H]([C@H](C)C[C@@H]2CC[C@@H](O)[C@H](OC)C2)CC(=O)[C@H](C)/C=C(\C)[C@@H](O)[C@@H](OC)C(=O)[C@H](C)C[C@H](C)/C=C/C=C/C=C/1C
2. Cc1cnc(C(=O)NCCc2ccc(S(=O)(=O)NC(=O)NC3CCCCC3)cc2)cn1 [GLIPIZIDE]
3. CCCCC1C(=O)N(c2ccccc2)N(c2ccccc2)C1=O
4. CC(=O)O[C@]1(C(C)=O)CC[C@H]2[C@@H]3C=C(Cl)C4=CC(=O)[C@@H]5C[C@@H]5[C@]4(C)[C@H]3CC[C@@]21C [CYPROTERONE ACETATE]
5. C[C@@H](O)[C@H]1C(=O)N2C(C(=O)O)=C(S[C@@H]3CN[C@H](C(=O)N(C)C)C3)[C@H](C)[C@H]12
6. CC(C)(Sc1cc(C(C)(C)C)c(O)c(C(C)(C)C)c1)Sc1cc(C(C)(C)C)c(O)c(C(C)(C)C)c1
7. COc1ccccc1OCC(O)COC(N)=O (configuration not stated)

Solution:
1. 1443
2. 1192.33
3. 722.33
4. 1192.33
5. 1490.83
6. 1490.83
7. 1121.33
